study_system: human SETD7 (Homo sapiens, UniProt Q8WTS6)
Sequence (Q8WTS6 whole entry): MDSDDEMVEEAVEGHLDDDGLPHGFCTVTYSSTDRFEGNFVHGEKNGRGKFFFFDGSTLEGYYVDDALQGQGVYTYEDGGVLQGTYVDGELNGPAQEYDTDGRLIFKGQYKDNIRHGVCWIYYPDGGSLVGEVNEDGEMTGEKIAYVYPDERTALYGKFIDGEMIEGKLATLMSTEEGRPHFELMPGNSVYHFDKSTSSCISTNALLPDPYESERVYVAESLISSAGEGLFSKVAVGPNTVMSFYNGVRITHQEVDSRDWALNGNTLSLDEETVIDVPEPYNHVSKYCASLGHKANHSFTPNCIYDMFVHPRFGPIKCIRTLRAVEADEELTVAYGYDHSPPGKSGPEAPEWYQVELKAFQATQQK
procedure_text: SETD7-catalysed methylation of H3 peptides, conversion by MALDI-TOF MS
Type: biochemical
cond: SETD7 100 nM, 13-mer peptide 10 µM, SAM 30 µM, 37 °C, 1 h, MALDI-TOF MS
Non-standard residues stand in square brackets, D forms with d. No end group written: not given here. βAla = NCCC(=O)O
Listed substances paired with reported methylation by SETD7 (conversion to methylated product)
metric: methylation by SETD7 (conversion to methylated product)

INSERT INTO assay_data (substance, recorded_value) VALUES
  ('FRTKQEARKSTGG (also: sidechain bridge or staple (positions not given here)) [Peptide 9]', '~62%'),
  ('VRTKQEARKSTGG (also: sidechain bridge or staple (positions not given here)) [Peptide 8]', '~64%'),
  ('ARTKQDARKSTGG (also: sidechain bridge or staple (positions not given here)) [Peptide 5]', '~10%'),
  ('GRTKQEARKSTGG (also: sidechain bridge or staple (positions not given here)) [Peptide 7]', '~96%'),
  ('[βAla]RTKQEARKSTGG (also: sidechain bridge or staple (positions not given here)) [Peptide 11]', '~48%'),
  ('D-ARTKQEARKSTGG (sidechain bridge or staple) [Peptide 6]', '~89%');
